Attribution: ChEMBL document CHEMBL1201862

Molecular target: UniProtKB P9WHJ3
Assay: Fluorescence Cell-Free Homogeneous Dose Retest to Identify Inhibitors of RecA-Intein Splicing Activity. [Related pubchem assays (depositor defined):AID2097, AID2223, AID489010, AID492950]
Type: functional
Active and inactive are the calls of the source. Rule as the data show it: actives have a measured EC50 and inactives only a lower limit.
TEST READOUT: EC50

The cases that follow already have their EC50 on record.
MOLECULE	READING
COC(=O)Cc1c(C)[nH]n(-c2cc(Cl)cc(Cl)c2)c1=O	16.9 µM (active)
Cc1ccc(S(=O)(=O)N[C@@H](Cc2ccccc2)C(=O)CCl)cc1	0.712 µM (active)

Kindly consider the entry below.
**Q:** Lab note: need EC50 for O=C1NCCCC2c3c(cc(Br)c(O)c3Br)OC12N1CCCCC1 (stereo not drawn) on UniProtKB P9WHJ3, anyone have it?
**A:** 5.46 µM (active)
